Settings: % Viability non-Wnt responsive cells
Where a SMILES comes first, the peptide text is derived from it.
# viability values compiled below
Your answer is read as %, so omit the unit and give the number.

CC[C@H](C)[C@H](NC(=O)[C@H](CC(C)C)NC(=O)[C@H](Cc1ccccc1)NC(=O)[C@H](Cc1c[nH]c2ccccc12)NC)C(=O)N[C@@H](CO)C(=O)N[C@@H](Cc1ccccc1)C(=O)N[C@@H](Cc1c[nH]c2ccccc12)C(=O)O [compound 111] (HELM PEPTIDE1{[meW].F.L.I.S.F.W}$$$$V2.0) yielded viability of 99.8

Field viability (entry CC[C@H](C)[C@@H]1NC(=O)[C@H](CC(C)C)NC(=O)[C@H](Cc2ccccc2)NC(=O)[C@H](Cc2c[nH]c3ccccc23)NC(=O)[C@@H](N)CC(=O)NCCCC[C@@H](C(=O)NCC(=O)O)NC(=O)[C@H](Cc2c[nH]c3ccccc23)NC(=O)[C@H](C)NC(=O)[C@H](CS)NC1=O [compound 178] (HELM PEPTIDE1{D.W.F.L.I.C.A.W.K.G}$PEPTIDE1,PEPTIDE1,1:R3-9:R3$$$V2.0) ) reads 91.8

---
The measured viability associated with CC[C@H](C)[C@H](NC(=O)[C@H](C)NC(=O)[C@H](Cc1ccccc1)NC(=O)[C@H](Cc1c[nH]c2ccccc12)NC(=O)[C@@H](N)CCSC)C(=O)N[C@@H](CO)C(=O)N[C@@H](Cc1ccccc1)C(=O)N[C@@H](Cc1c[nH]c2ccccc12)C(=O)NCC(=O)O [compound 157] (H-MWFAISFWG-OH) reads 99.9

---

Recorded EC50 values for a group of compounds are listed next.
Target: Wnt-responsive promoter (TCF/LEF)
Assay: Wnt-dependent luciferase reporter assay
Where a SMILES comes first, the peptide text is derived from it.

Just so you know, measured EC50 for CC[C@H](C)[C@H](NC(=O)[C@@H]1CCC(=O)NCCCC[C@H](N)C(=O)N[C@@H](Cc2c[nH]c3ccccc23)C(=O)N[C@@H](Cc2ccccc2)C(=O)N1)C(=O)N[C@@H](CO)C(=O)N[C@@H](Cc1ccccc1)C(=O)N[C@@H](Cc1c[nH]c2ccccc12)C(=O)NCC(=O)O [compound 208] (HELM PEPTIDE1{K.W.F.E.I.S.F.W.G}$PEPTIDE1,PEPTIDE1,1:R3-4:R3$$$V2.0) came out at 7.5 to 15 µM

Entry CC[C@H](C)[C@H](NC(=O)[C@H](CC(C)C)NC(=O)[C@@H](NC(=O)[C@H](Cc1c[nH]c2ccccc12)NC(=O)[C@@H](N)Cc1c[nH]cn1)[C@@H](C)CC)C(=O)N[C@@H](CO)C(=O)N[C@@H](Cc1ccccc1)C(=O)N[C@@H](Cc1c[nH]c2ccccc12)C(=O)NCC(=O)O [compound 126] (H-HWILISFWG-OH) — recorded EC50 = < 7.5 µM

---

Catalogue of compounds with associated Kd
Biological target: β-catenin (Homo sapiens)
Sequence (P35222 whole entry): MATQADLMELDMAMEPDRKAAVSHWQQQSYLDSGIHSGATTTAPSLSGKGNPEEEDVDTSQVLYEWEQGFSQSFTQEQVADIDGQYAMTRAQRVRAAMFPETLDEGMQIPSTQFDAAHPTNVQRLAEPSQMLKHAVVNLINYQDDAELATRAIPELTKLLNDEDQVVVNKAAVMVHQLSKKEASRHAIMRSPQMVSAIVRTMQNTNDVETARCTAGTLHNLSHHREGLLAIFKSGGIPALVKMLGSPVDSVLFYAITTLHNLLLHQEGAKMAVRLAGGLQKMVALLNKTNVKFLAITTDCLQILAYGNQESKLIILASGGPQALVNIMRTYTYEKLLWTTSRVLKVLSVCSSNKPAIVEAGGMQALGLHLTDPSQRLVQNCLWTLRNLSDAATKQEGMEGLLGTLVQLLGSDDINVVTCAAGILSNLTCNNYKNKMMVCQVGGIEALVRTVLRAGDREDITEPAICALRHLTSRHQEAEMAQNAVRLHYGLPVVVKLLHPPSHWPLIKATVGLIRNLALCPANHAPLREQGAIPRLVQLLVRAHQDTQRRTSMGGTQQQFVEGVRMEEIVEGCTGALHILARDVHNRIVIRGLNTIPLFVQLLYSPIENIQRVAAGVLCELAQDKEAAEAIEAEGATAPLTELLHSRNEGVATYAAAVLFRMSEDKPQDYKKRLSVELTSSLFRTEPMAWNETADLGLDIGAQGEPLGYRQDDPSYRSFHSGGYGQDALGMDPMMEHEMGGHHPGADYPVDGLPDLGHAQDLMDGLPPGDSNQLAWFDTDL
Assay: KD50 measurement using competitive fluorescence polarization (FP) with labelled TCF4
Format: binding
Details: fluorescence polarization, β-catenin; read-out: β-Cat FP KD
Where a SMILES comes first, the peptide text is derived from it.

Illustrative cases are given below, each with its answer.
Lab note: CC[C@H](C)[C@@H]1NC(=O)[C@H](CC(C)C)NC(=O)[C@H](Cc2ccccc2)NC(=O)[C@H](Cc2c[nH]c3ccccc23)NC(=O)[C@@H](N)CCCCNC(=O)CC[C@@H](C(=O)N[C@@H](Cc2ccccc2)C(=O)N[C@@H](Cc2c[nH]c3ccccc23)C(=O)NCC(=O)O)NC1=O [compound 229] (HELM PEPTIDE1{K.W.F.L.I.E.F.W.G}$PEPTIDE1,PEPTIDE1,1:R3-6:R3$$$V2.0) gave Kd of 1 to 10 µM

# Kd of CC[C@H](C)[C@H](NC(=O)[C@H](CC(C)C)NC(=O)[C@H](Cc1ccccc1)NC(=O)[C@H](Cc1c[nH]c2ccccc12)NC(=O)[C@H](CCSC)NC(=O)[C@H](CCCNC(=N)N)NC(=O)[C@H](CO)NC(=O)[C@@H](N)CCCNC(=N)N)C(=O)N[C@@H](CO)C(=O)N[C@@H](Cc1ccccc1)C(=O)N[C@@H](Cc1c[nH]c2ccccc12)C(N)=O [compound 84] (H-RSRMWFLISFW-NH2) = > 30 µM

// below: Kd requested for another compound
The measured Kd associated with CC[C@H](C)[C@H](NC(=O)[C@H](CC(C)C)NC(=O)[C@@H](NC(=O)[C@H](Cc1c[nH]c2ccccc12)NC(=O)[C@H](CCSC)NC(=O)[C@@H](N)CCCCN)[C@@H](C)CC)C(=O)N[C@@H](CO)C(=O)N[C@@H](Cc1ccccc1)C(=O)N[C@@H](Cc1c[nH]c2ccccc12)C(=O)NCC(=O)O [compound 122] (H-KMWILISFWG-OH) reads < 0.4 µM

---

Molecular target: β-catenin (Homo sapiens)
Test: KD50 measurement using competitive fluorescence polarization (FP) with labelled TCF4
Format: binding
Settings: fluorescence polarization, β-catenin; read-out: β-Cat FP KD
Where a SMILES comes first, the peptide text is derived from it.
MEASURED PROPERTY: Kd

Kd recorded for this molecule, CC[C@H](C)[C@H](NC(=O)[C@H](CC(C)C)NC(=O)[C@@H](NC(=O)[C@H](Cc1c[nH]c2ccccc12)NC(=O)[C@@H](N)CCSC)[C@@H](C)CC)C(=O)N[C@@H](CO)C(=O)N[C@@H](Cc1ccccc1)C(=O)N[C@@H](Cc1c[nH]c2ccccc12)C(=O)NCC(=O)O [compound 155] (H-MWILISFWG-OH) , is > 30000 nM

Given item CC[C@H](C)[C@H](NC(=O)[C@H](CC(C)C)NC(=O)[C@H](Cc1ccccc1)NC(=O)[C@H](Cc1c[nH]c2ccccc12)NC(=O)[C@H](Cc1ccccc1)NC(=O)[C@H](CCCNC(=N)N)NC(=O)[C@H](CO)NC(=O)[C@@H](N)CCSC)C(=O)N[C@@H](CO)C(=O)N[C@@H](Cc1ccccc1)C(=O)N[C@@H](Cc1c[nH]c2ccccc12)C(N)=O [compound 77] (H-MSRFWFLISFW-NH2) , the value recorded as its Kd is > 30000 nM

response.value for CC[C@H](C)[C@@H]1NC(=O)[C@H](CC(C)C)NC(=O)[C@@H](NC(C)=O)CCCCNC(=O)C[C@@H](C(=O)O)NC(=O)[C@H](Cc2c[nH]c3ccccc23)NC(=O)[C@H](Cc2ccccc2)NC(=O)[C@H](C)NC1=O [compound 252] (HELM PEPTIDE1{[ac].K.L.I.A.F.W.D}$PEPTIDE1,PEPTIDE1,2:R3-8:R3$$$V2.0) (field: Kd) = > 30000 nM

Record CCCCCCCCCCCCCCCCCC(=O)N[C@@H](Cc1c[nH]c2ccccc12)C(=O)N(C)[C@@H](Cc1c[nH]c2ccccc12)C(=O)N[C@@H](CCC(=O)O)C(=O)NC(C)(CO)C(=O)N[C@H](C(=O)N[C@@H](CC(C)C)C(=O)N[C@@H](CC(=O)O)C(=O)N[C@@H](CCC(=O)O)C(=O)N[C@@H](Cc1c[nH]cn1)C(=O)NC(C)(C(=O)N[C@@H](CCC(N)=O)C(=O)N[C@@H](CCCNC(=N)N)C(=O)N[C@H](C(=O)N[C@@H](Cc1c[nH]c2ccccc12)C(=O)O)C(C)C)C(C)C)[C@@H](C)CC (single isomer, unassigned) [SEQ ID NO: 393/500] . Reported Kd: > 30000 nM

For reference, reported Kd for CC[C@H](C)[C@H](NC(=O)[C@H](CC(C)C)NC(=O)[C@H](Cc1ccccc1)NC(=O)[C@H](Cc1c[nH]c2ccccc12)NC(=O)[C@H](Cc1c[nH]c2ccccc12)NC(=O)[C@H](CCCNC(=N)N)NC(=O)[C@H](CO)NC(=O)[C@@H](N)Cc1c[nH]c2ccccc12)C(=O)N[C@@H](CO)C(=O)N[C@@H](Cc1ccccc1)C(=O)N[C@@H](Cc1c[nH]c2ccccc12)C(N)=O [compound 92] (H-WSRWWFLISFW-NH2) stands at > 30000 nM

Further cases:
Please fill in: Kd reported for CC[C@H](C)[C@H](NC(=O)[C@H](CC(C)C)NC(=O)[C@H](Cc1ccccc1)NC(=O)[C@H](Cc1c[nH]c2ccccc12)NC(=O)[C@@H](N)CCSC)C(=O)N[C@@H](CS)C(=O)N[C@@H](Cc1ccccn1)C(=O)N[C@@H](Cc1c[nH]c2ccccc12)C(=O)NCC(=O)O [compound 148] (HELM PEPTIDE1{M.W.F.L.I.C.[O=C([C@H](Cc1ccccn1)N[*:1])[*:2]].W.G}$$$$V2.0) = 400 to 1000 nM

Recorded result, CC[C@H](C)[C@@H]1NC(=O)[C@H](CC(C)C)NC(=O)[C@H](Cc2ccccc2)NC(=O)[C@H](Cc2c[nH]c3ccccc23)NC(=O)[C@@H](N)CCCCNC(=O)CCNC(=O)C[C@@H](C(=O)O)NC(=O)[C@H](Cc2c[nH]c3ccccc23)NC(=O)[C@H](C)NC(=O)[C@H](CS)NC1=O [compound 260] (HELM PEPTIDE1{K.W.F.L.I.C.A.W.[O=C(O)[C@H](CC(=O)[*:2])N[*:1]].[bAla]}$PEPTIDE1,PEPTIDE1,1:R3-10:R2$$$V2.0) , Kd: 1000 to 10000 nM

Record summary for CC[C@H](C)[C@@H]1NC(=O)[C@H](CC(C)C)NC(=O)[C@H]([C@@H](C)CC)NC(=O)[C@H](Cc2c[nH]c3ccccc23)NC(=O)[C@@H](N)CCCCNC(=O)CC[C@@H](C(=O)O)NC(=O)[C@H](Cc2c[nH]c3ccccc23)NC(=O)[C@H](Cc2ccccc2)NC(=O)[C@H](CO)NC1=O [compound 182] (HELM PEPTIDE1{K.W.I.L.I.S.F.W.E}$PEPTIDE1,PEPTIDE1,1:R3-9:R3$$$V2.0) : reported Kd = 400 to 1000 nM

Measured Kd, CC[C@H](C)[C@H](NC(=O)[C@H](CC(C)C)NC(=O)[C@H](C)NC(=O)[C@H](Cc1c[nH]c2ccccc12)NC(=O)[C@@H](N)CCSC)C(=O)N[C@@H](CO)C(=O)N[C@@H](Cc1ccccc1)C(=O)N[C@@H](Cc1c[nH]c2ccccc12)C(=O)NCC(=O)O [compound 13] (H-MWALISFWG-OH) : 400 to 1000 nM

Quick note, Kd for CC[C@H](C)[C@H](NC(=O)[C@H](CC(C)C)NC(=O)[C@@H](NC(=O)[C@H](Cc1c[nH]c2ccccc12)NC(C)=O)[C@@H](C)CC)C(=O)N[C@@H](C)C(=O)N[C@@H](Cc1ccccc1)C(=O)N[C@@H](Cc1c[nH]c2ccccc12)C(=O)NCC(=O)O [compound 263] (Ac-WILIAFWG-OH) landed at 400 to 1000 nM
